Target system: NAMPT (Homo sapiens)
Construct: His tag; host or cells: E. coli
Sequence (P43490 whole entry): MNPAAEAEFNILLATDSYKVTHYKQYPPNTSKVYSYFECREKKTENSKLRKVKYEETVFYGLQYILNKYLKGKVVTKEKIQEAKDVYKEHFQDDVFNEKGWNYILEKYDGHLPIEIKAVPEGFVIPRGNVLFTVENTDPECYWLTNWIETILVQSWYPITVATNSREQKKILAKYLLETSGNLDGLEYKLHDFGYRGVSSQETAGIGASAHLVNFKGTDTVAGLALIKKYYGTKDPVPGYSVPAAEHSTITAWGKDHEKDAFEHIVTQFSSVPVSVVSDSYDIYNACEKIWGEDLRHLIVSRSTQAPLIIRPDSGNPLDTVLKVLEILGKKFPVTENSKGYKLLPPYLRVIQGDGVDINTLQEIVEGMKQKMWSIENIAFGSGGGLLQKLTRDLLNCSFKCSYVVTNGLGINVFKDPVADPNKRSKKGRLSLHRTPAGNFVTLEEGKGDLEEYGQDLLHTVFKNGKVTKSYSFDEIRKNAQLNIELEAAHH
Assay details: Biochemical inhibition assay: NAMPT enzymatic reaction, NMN quantified by mass spectrometry
Run conditions: NAMPT enzymatic reaction; read-out: Biochem IC50
Can you tell me IC50 for the items I'm about to list?
I'd appreciate it if you wrote the number followed by its unit.

Query: Please look up its IC50: COc1cc(C(F)(F)F)ccc1S(=O)(=O)c1ccc(CNC(=O)c2cc3cnccc3[nH]2)cc1
Result: 22 nM

Query: Try CCOc1ccc(Cl)cc1S(=O)(=O)c1ccc(CNC(=O)c2ccc3nccn3c2)cc1 next.
Result: 2.2 nM

Query: Try Cc1ccc(Cl)c(S(=O)(=O)c2ccc(CNC(=O)c3cnc4nccn4c3)cc2)c1 next.
Result: 5.7 nM

Query: Try CC(C)(C)c1cccc(S(=O)(=O)c2ccc(CNC(=O)c3ccc4nccn4c3)cc2)c1 next.
Result: 9.7 nM

Query: Try COc1cc(C)cc(S(=O)(=O)c2ccc(CNC(=O)c3cnc4nccn4c3)cc2)c1 next.
Result: 1.6 nM

Query: Try O=C(NCc1ccc(S(=O)(=O)c2ccccc2F)cc1)c1cc2ccncc2o1 next.
Result: 41.8 nM

Query: Try O=C(NCc1ccc(S(=O)(=O)c2ccccc2)cc1)N1CCc2ncccc2C1 next.
Result: 544 nM

Query: Try Cc1cccc(S(=O)(=O)c2ccc(CNC(=O)c3cc4cnccc4[nH]3)cc2)c1 next.
Result: 9 nM

Query: Try Cc1cc(C)c(S(=O)(=O)c2ccc(CNC(=O)c3cc4ccncc4o3)cc2)c(C)c1 next.
Result: 59.2 nM
